// reported pKd for each item listed
- test_target: Recombinant human his-tagged IGF 1R extracellular domain protein (human) (UniProt P08069)
- assay_explanation: SPR, captured IgG, IGF-1R ECD-his analyte, dissociation pH 6
Lab note: report pKd as minus log10 of the concentration in molar units, number only.

Some solved cases for reference:
| binder | pKd |
| --- | --- |
| VRDN-02548 (antibody, V domains shown) VH: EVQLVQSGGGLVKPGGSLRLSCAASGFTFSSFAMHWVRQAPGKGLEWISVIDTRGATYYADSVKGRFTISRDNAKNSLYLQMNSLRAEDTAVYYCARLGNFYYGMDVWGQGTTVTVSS VL: EIVLTQSPGTLSVSPGERATLSCRASQSIGSSLHWYQQKPGQAPRLLIKYASQSLSGIPDRFSGSGSGTDFTLTISRLEPEDFAVYYCHQSHRLPHTFGQGTKVEIK | 10.60 |
| VRDN-02524 (antibody, V domains shown) VH: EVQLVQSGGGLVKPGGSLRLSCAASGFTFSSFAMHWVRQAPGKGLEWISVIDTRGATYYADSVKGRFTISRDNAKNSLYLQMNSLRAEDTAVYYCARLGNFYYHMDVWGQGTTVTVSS VL: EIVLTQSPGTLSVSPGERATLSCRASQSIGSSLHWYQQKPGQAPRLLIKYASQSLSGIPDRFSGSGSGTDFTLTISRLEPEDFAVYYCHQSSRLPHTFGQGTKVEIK | 8.91 |
| VRDN-02522 (antibody, V domains shown) VH: EVQLVQSGGGLVKPGGSLRLSCAASGFTFSSFAMHWVRQAPGKGLEWISVIDTRGATYYADSVKGRFTISRDNAKNSLYLQMNSLRAEDTAVYYCARLGNFHYGMDVWGQGTTVTVSS VL: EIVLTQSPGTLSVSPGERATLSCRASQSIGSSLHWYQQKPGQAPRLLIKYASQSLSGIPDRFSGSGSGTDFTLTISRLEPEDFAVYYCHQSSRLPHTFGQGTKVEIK | 10.42 |
| VRDN-02568 (antibody, V domains shown) VH: EVQLVQSGGGLVKPGGSLRLSCAASGFTFSSFHMHWVRQAPGKGLEWISVIHTRGATYYADSVKGRFTISRDNAKNSLYLQMNSLRAEDTAVYYCARLGNFYYGHDVWGQGTTVTVSS VL: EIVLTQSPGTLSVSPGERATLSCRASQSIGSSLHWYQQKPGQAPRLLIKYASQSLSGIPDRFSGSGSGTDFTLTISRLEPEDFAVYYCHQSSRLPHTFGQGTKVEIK | 7.52 |
| VRDN-02540 (antibody, V domains shown) VH: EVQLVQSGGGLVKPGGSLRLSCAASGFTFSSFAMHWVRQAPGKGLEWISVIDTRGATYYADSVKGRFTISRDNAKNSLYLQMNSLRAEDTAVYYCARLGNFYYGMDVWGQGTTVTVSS VL: EIVLTQSPGTLSVSPGERATLSCRASQSIGSSLHWYQQKPGQAPRLLIKYHSQSLSGIPDRFSGSGSGTDFTLTISRLEPEDFAVYYCHQSSRLPHTFGQGTKVEIK | 10.18 |
| VRDN-02510 (antibody, V domains shown) VH: EVQLVQSGGGLVKPGGSLRLSCAASGFTFSSFAMHWVRQAPGKGLEWISVIHTRGATYYADSVKGRFTISRDNAKNSLYLQMNSLRAEDTAVYYCARLGNFYYGMDVWGQGTTVTVSS VL: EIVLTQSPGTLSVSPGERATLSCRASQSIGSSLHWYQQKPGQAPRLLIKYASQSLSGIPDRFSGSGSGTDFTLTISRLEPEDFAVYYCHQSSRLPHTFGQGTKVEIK | 8.42 |
| VRDN-02554 (antibody, V domains shown) VH: EVQLVQSGGGLVKPGGSLRLSCAASGFTFSSFAMHWVRQAPGKGLEWISVIHTRGATYYADSVKGRFTISRDNAKNSLYLQMNSLRAEDTAVYYCARLGNFYYGMDVWGQGTTVTVSS VL: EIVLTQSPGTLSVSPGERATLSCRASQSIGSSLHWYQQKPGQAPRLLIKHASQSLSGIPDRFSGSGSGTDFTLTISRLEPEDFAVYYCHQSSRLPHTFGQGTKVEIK | 8.82 |
| VRDN-02523 (antibody, V domains shown) VH: EVQLVQSGGGLVKPGGSLRLSCAASGFTFSSFAMHWVRQAPGKGLEWISVIDTRGATYYADSVKGRFTISRDNAKNSLYLQMNSLRAEDTAVYYCARLGNFYHGMDVWGQGTTVTVSS VL: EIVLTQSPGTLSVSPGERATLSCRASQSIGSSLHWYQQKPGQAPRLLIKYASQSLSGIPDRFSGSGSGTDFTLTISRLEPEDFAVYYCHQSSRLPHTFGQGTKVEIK | 10.44 |

Q) Fill in the blank: the reported pKd of VRDN-02544 (antibody, V domains shown) VH: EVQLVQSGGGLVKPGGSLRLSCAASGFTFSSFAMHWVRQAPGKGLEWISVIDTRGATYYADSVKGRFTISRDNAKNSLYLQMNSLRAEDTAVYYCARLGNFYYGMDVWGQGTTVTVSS VL: EIVLTQSPGTLSVSPGERATLSCRASQSIGSSLHWYQQKPGQAPRLLIKYASQSHSGIPDRFSGSGSGTDFTLTISRLEPEDFAVYYCHQSSRLPHTFGQGTKVEIK is ____.
A) 10.56
